All figures here come from paper PMC3626704.

The entries below come with measured pIC50 values attached.
target: T1, 6-Helix-Fd (HIV-1 gp41 (HXB2-like, printed sequence), stabilised)
T1 construct: also called post-fusion six-helix bundle mimic
T1 chain: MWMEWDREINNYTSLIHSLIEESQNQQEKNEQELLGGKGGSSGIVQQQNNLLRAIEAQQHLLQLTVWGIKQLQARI
assay-remarks: ELISA; competitive phage ELISA, on-phage bivalent scFv: binding to immobilised 5-Helix inhibited by free 5-Helix or free 6-Helix-Fd (concentrations for the trimer); apparent
applied-conditions: one partner purified
Here pIC50 is given on a logarithmic scale as minus log10 of the concentration in mol/L.

## Task Look up pIC50: 25D9 bivalent scFv on phage (scFv, V domains shown) VH: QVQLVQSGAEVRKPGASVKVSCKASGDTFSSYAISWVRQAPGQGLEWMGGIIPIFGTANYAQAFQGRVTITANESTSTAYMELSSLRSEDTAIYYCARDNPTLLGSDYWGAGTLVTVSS VL: DIQMTQSPSTLSASIGDRVTITCRASEDILGRLAWYQQKPGKAPKLLIYRASRLASGAPSRFSGSGSGTDFTLTISSLQPDDFATYYCQQRANYPLTFGGGTKLEIK
## Result 6.64

## Task Try this binder next: 25B6 bivalent scFv on phage (scFv, V domains shown) VH: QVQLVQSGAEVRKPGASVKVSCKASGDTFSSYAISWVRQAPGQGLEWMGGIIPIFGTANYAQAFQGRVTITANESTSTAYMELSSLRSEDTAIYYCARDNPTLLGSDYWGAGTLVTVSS VL: DIQMTQSPSTLSASIGDRVTITCRASENIRSGLAWYQQKPGKAPKLLIYRASRLASGAPSRFSGSGSGTDFTLTISSLQPDDFATYYCQQYDDYPHTFGGGTKLEIK
## Result 7.64
